Reference source for all entries: ChEMBL document CHEMBL3988442

tested on: Wolbachia pipientis; experiment: Anti-Wolbachia Cell-Based Screen; assay type: functional; set-up: scale not given: in the data most compounds retested in dose-response had high values; conditions: 5 µM
Among all 48,000 compounds or so, about 13,000 (27%) showed an effect of 50% or more. The list shows a part of the results.
Endpoint: Percent Effect (%)
Write down the numeric answer in % and omit the unit.

Reference set, count: 3
Reported Percent Effect of CCn1cnnc1CNC(=O)N1CCN(c2ccccc2OC)CC1 : 95.25

Reported Percent Effect of O=C(NCc1ccco1)Nc1cccc(S(=O)(=O)C(F)F)c1 : 12.8

Reported Percent Effect of Cc1ccc(-c2nnc(CN3CCOCC(CO)C3)o2)n1C (stereo unspecified) : -20.97

Others:
Reported Percent Effect of CC(C)n1cnnc1CCNCc1cn(CCC(N)=O)c2ccccc12 : -8.335

Reported Percent Effect of CCn1cnnc1CNC(=O)N1CCN(c2cccc(C)c2)CC1 : 81.4

Reported Percent Effect of CCn1cnnc1CNC(=O)N(C)Cc1ccccc1OC : -13.71
